As shown below, each of these compounds has a reported IC50 value.
Target: PDEV (Homo sapiens, UniProt O76074)
Construct: PDEV was isolated from rabbit and human tissues according to the protocol described by Boolell et al
Test: PDE assay: inhibition of PDEV isolated from human tissue
Conditions: PDEV inhibitory activity
attribute measured: IC50 (nM)

INSERT INTO results (compound, result_unit, test_result) VALUES
  ('Oc1c2c(nc3ccccc13)[C@@H](c1ccc3c(c1)CCO3)N(c1ncc(-c3ccccn3)cn1)C2', 'nM', 0.23),
  ('CN1CCN(C(=O)c2ccc(-c3ccc(C(=O)N4Cc5c([nH]c6ccccc6c5=O)[C@H]4c4ccc5c(c4)OCO5)o3)cc2)CC1', 'nM', 0.32),
  ('O=C(c1ccc(-c2ccc([N+](=O)[O-])cc2)o1)N1Cc2c(nc3ccccc3c2O)C1c1ccc2c(c1)OCO2 (racemic)', 'nM', 0.39),
  ('COc1ccc(-c2cnc(N3Cc4c([nH]c5ccccc5c4=O)C3c3ccc4c(c3)OCO4)nc2)cc1 (racemic)', 'nM', 0.191),
  ('O=c1c2c([nH]c3ccccc13)C(c1ccc3c(c1)OCO3)N(c1ncc(-c3ccncc3)cn1)C2 (racemic) [Compound 57]', 'nM', 0.84),
  ('COc1ccc(-c2cnc(N3Cc4c([nH]c5ccccc5c4=O)[C@H]3c3ccc4c(c3)OCO4)nc2)cc1OC', 'nM', 0.075),
  ('O=C(O)c1ccc(/C=C/C(=O)N2Cc3c([nH]c4ccccc4c3=O)C2c2ccc3c(c2)OCO3)cc1 (racemic)', 'nM', 0.828);

----------
Target: PDEV (Homo sapiens, UniProt O76074)
Construct: PDEV was isolated from rabbit and human tissues according to the protocol described by Boolell et al
Assay: PDE assay: inhibition of PDEV isolated from human tissue
Settings: PDEV inhibitory activity
pIC50: −log10 of the molar value. Structures can show the parent of a compound that is named as a salt.
attribute measured: pIC50

INSERT INTO measurements (compound, test_result) VALUES
  ('Oc1c2c(nc3ccccc13)C(c1ccc3c(c1)CCO3)N(c1ncccn1)C2 (racemic)', 7.89),
  ('O=C(c1ccc(-c2ccc(OCCN3CCCC3)cc2)o1)N1Cc2c(nc3ccccc3c2O)C1c1ccc2c(c1)OCO2 (racemic)', 8.88),
  ('COC(=O)c1ccc(/C=C/C(=O)N2Cc3c([nH]c4ccccc4c3=O)C2c2ccc3c(c2)OCO3)cc1 (racemic)', 9.29),
  ('O=c1c2c([nH]c3ccccc13)C(c1ccc3c(c1)OCO3)NC2 (racemic) [Compound 4, hydrochloride salt]', 6.18),
  ('Oc1c2c(nc3ccccc13)C(c1ccc3c(c1)CCO3)N(c1ncc(Br)cn1)C2 (racemic)', 8.72),
  ('CN1CCN(C(=O)c2ccc(-c3ccc(C(=O)N4Cc5c([nH]c6ccccc6c5=O)C4c4ccc5c(c4)OCO5)o3)cc2)CC1 (centres unmarked)', 8.80),
  ('O=C(c1ccc(-c2ccsc2)o1)N1Cc2c(nc3ccccc3c2O)C1c1ccc2c(c1)OCO2 (racemic)', 9.16),
  ('O=C(OCc1ccncc1)N1Cc2c(nc3ccccc3c2O)C1c1ccc2c(c1)OCO2 (racemic) [Compound 37, hydrochloride salt]', 8.24),
  ('O=C(c1ccc(-c2ccc(O)cc2)o1)N1Cc2c(nc3ccccc3c2O)C1c1ccc2c(c1)OCO2 (racemic)', 9.07),
  ('O=c1c2c([nH]c3ccccc13)[C@@H](c1ccc3c(c1)CCO3)N(c1ncc(-c3ccccn3)cn1)C2', 9.64),
  ('O=Cc1ccc(-c2ccc(C(=O)N3Cc4c([nH]c5ccccc5c4=O)C3c3ccc4c(c3)OCO4)o2)cc1 (centres unmarked)', 8.75),
  ('COc1ccc(-c2cnc(N3Cc4c([nH]c5ccccc5c4=O)C3c3ccc(OC)c(OC)c3)nc2)cc1OC (centres unmarked)', 5.94),
  ('O=c1c2c([nH]c3ccccc13)C(c1ccc3c(c1)CCO3)N(c1ncc(-c3ccccn3)cn1)C2 (centres unmarked)', 8.99),
  ('O=C(c1ccc(-c2ccccc2)o1)N1Cc2c(nc3ccccc3c2O)C1c1ccc2c(c1)OCO2 (racemic)', 9.12);

----------
Target: PDEV (Homo sapiens)
Construct: PDEV was isolated from rabbit and human tissues according to the protocol described by Boolell et al; from tissue; host or cells: human tissue, homogenate supernatant fractionated on Mono Q
Assay: In vitro determination of Ki for phosphodiesterase inhibitors
Assay type: biochemical
Settings: human tissue; given as 'Ki ='
Param label: returns true (1) when Ki < 0.3 nM, returns false (0) otherwise, including exact equality.

INSERT INTO assay_data (compound, assay_system, answer_label) VALUES
  ('Cc1ncc(-c2cnc(N3Cc4c(nc5ccccc5c4O)C3c3ccc4c(c3)CCO4)nc2)n1Cc1ccccc1 (racemic)', 'PDEV (Homo sapiens)', 'true (1)'),
  ('Oc1c2c(nc3ccccc13)C(c1ccc3occc3c1)N(c1ncc(-c3ccccn3)cn1)C2 (racemic)', 'PDEV (Homo sapiens)', 'true (1)'),
  ('O=c1c2c([nH]c3ccccc13)C(c1ccc3c(c1)CCO3)N(c1ncc(-c3cccc[n+]3[O-])cn1)C2 (centres unmarked)', 'PDEV (Homo sapiens)', 'true (1)'),
  ('Oc1c2c(nc3ccccc13)C(c1ccc3c(c1)OCO3)N(c1ccc(-n3ccnc3)cc1)C2 (racemic)', 'PDEV (Homo sapiens)', 'false (0)'),
  ('Oc1c2c(nc3ccccc13)C(c1ccc3c(c1)CCO3)N(c1ccc(-c3ccccn3)cn1)C2 (racemic)', 'PDEV (Homo sapiens)', 'false (0)'),
  ('O=c1c2c([nH]c3ccccc13)C(c1ccc3c(c1)CCO3)N(c1ccccn1)C2 (centres unmarked) [Compound 136]', 'PDEV (Homo sapiens)', 'true (1)'),
  ('O=c1c2c([nH]c3ccccc13)C(c1ccc3c(c1)CCO3)N(c1ccccn1)C2 (racemic) [Compound 129]', 'PDEV (Homo sapiens)', 'false (0)');

----------
As shown below, each of these compounds has a reported log10 of IC50 value.
Target: PDEV (Homo sapiens, UniProt O76074)
Construct: PDEV was isolated from rabbit and human tissues according to the protocol described by Boolell et al
Experiment: PDE assay: inhibition of PDEV isolated from human tissue
Details: PDEV inhibitory activity
Experimental: Briefly, rabbit or human tissues were homogenized in an ice-cold buffer solution containing 20 mM HEPES (pH 7.2), 0.25M sucrose, 1 mM EDTA, and 1 mM phenylmethylsulphonyl fluoride (PMSF). […] The assays were adapted to a 96-well format. […] An aliquot of 200 μl was taken and counted by liquid scintillation. PDE activity was expressed as pmol cyclic nucleotide hydrolyzed/min/ml of enzyme preparation. […] Unless otherwise noted, PDEV inhibitory activities were measured using human tissue. […]
attribute measured: log10 of IC50 (log10 of the value in nM)

INSERT INTO assay_data (compound, attribute_measured, test_result) VALUES
  ('O=C(c1cccnc1O)N1Cc2c([nH]c3ccccc3c2=O)C1c1ccc2c(c1)OCO2 (racemic)', 'log10 of IC50', 0.20),
  ('O=c1c2c([nH]c3ccccc13)C(c1ccc3c(c1)OCO3)N(Cc1ccncc1)C2 (racemic)', 'log10 of IC50', 2.84),
  ('COC(=O)c1ccc(/C=C/C(=O)N2Cc3c([nH]c4ccccc4c3=O)C2c2ccc3c(c2)CCO3)cc1 (racemic)', 'log10 of IC50', -0.28),
  ('COc1ccc(-c2ccc(C(=O)N3Cc4c([nH]c5ccccc5c4=O)C3c3ccc4c(c3)OCO4)o2)cc1 (stereo not drawn)', 'log10 of IC50', 0.29),
  ('COc1ccc(-c2cnc(N3Cc4c([nH]c5ccccc5c4=O)C3c3ccc4c(c3)CCO4)nc2)cc1 (stereo not drawn)', 'log10 of IC50', -0.33),
  ('O=C(c1cc2ccc(O)cc2o1)N1Cc2c(nc3ccccc3c2O)C1c1ccc2c(c1)OCO2 (racemic)', 'log10 of IC50', -0.34);

----------
As shown below, each of these molecules has a reported pIC50 value.
Biological target: PDEV (Oryctolagus cuniculus)
Test: PDE assay: inhibition of PDEV isolated from rabbit tissue
Conditions: PDEV inhibitory activity, rabbit tissue (footnote a)
pIC50: −log10 of the molar value.
attribute measured: pIC50

INSERT INTO measurements (molecule, attribute_measured, test_result) VALUES
  ('COc1ccc(-c2cnc(N3Cc4c([nH]c5ccccc5c4=O)[C@@H]3c3ccc4c(c3)OCO4)nc2)cc1OC [Compound 35]', 'pIC50', 8.85),
  ('O=C(OCc1ccncc1)N1Cc2c([nH]c3ccccc3c2=O)C1c1ccc2c(c1)CCO2 (racemic) [Compound 53]', 'pIC50', 8.27),
  ('COC(=O)c1ccc(/C=C/C(=O)N2Cc3c(n(C)c4ccccc4c3=O)C2c2ccc3c(c2)OCO3)cc1 (racemic) [Compound 63]', 'pIC50', 6.29),
  ('COc1ccc(C2NCc3c2[nH]c2ccccc2c3=O)cc1OC (racemic) [Compound 12]', 'pIC50', 6.26),
  ('O=C(c1ccc(Br)o1)N1Cc2c(nc3ccccc3c2O)C1c1ccc2c(c1)OCO2 (racemic) [Compound 30]', 'pIC50', 8.28),
  ('CC(C)(C)OC(=O)N1Cc2c([nH]c3ccccc3c2=O)C1c1ccc2c(c1)OCO2 (racemic) [Compound 3]', 'pIC50', 6.47);
